# Tested on: NIH3T3
# Test Protocol: Cytotoxic Profiling of Annotated Libraries Using Quantitative High-Throughput Screening (AID 1296008); also: nearly all actives have a fitted effect of over 60% in size
# Study Conditions: Five cell lines viability, CellTiter-Glo ATP luminescence, 48-72 h
Results filed as inconclusive are left out. Active and inactive are the calls of the source. Calls follow the shape of the dose curve; as a rule, active = well fitted inhibition curve with a large enough effect; inconclusive = small, poorly fitted or top-dose-only effect; inactive = flat fitted curve, though single readings scatter. Where a SMILES comes first, the peptide text is derived from it. [ ]: non-standard residue; d: D form. 2Abz = Nc1ccccc1C(=O)O
Pick one and only one: T for active, F for inactive

Test call, this molecule: O=C1NCc2nc3ccccc3c(=O)n2C1Cc1c[nH]c2ccccc12 (stereo not given)
F

Test call, this molecule: O=C(/C=C/c1ccc(O)cc1)OC[C@]12O[C@H]1[C@@H](O)[C@@H]1C=CO[C@@H](O[C@@H]3O[C@H](CO)[C@@H](O)[C@H](O)[C@H]3O)[C@@H]12
F

Test call, this molecule: CC1CCC2C(C)(C)CC(C)(CO)C2(O)C1C(=O)O (stereo not given)
F

Test call, this molecule: OC[C@H]1O[C@@H](n2cnc3c(NCc4ccc(O)cc4)ncnc32)[C@H](O)[C@@H]1O
F

Test call, this molecule: CC(C)C1=CC2=CCC3[C@](C)(CCC[C@@]3(C)C(=O)O)C2CC1=O (stereo not given in full)
F

Test call, this molecule: Cc1ccc(C(=O)Nc2ccc(Oc3cc4cnn(C)c4cc3-c3cn[nH]c3)c(F)c2)c(=O)n1-c1ccc(F)cc1
T

Test call, this molecule: Cc1[nH]cnc1C1CCN(c2nc3cccc4c3n2CCC4=O)CC1
F

Test call, this molecule: COC(=O)[C@H](CC1C=NC=N1)NCC12CC3CC(CC(C3)C1)C2 (stereo not given in full)
F

Test call, this molecule: O=c1ccn([C@@H]2O[C@H](CO)[C@@H](O)[C@H]2O)c(=O)[nH]1
F

Test call, this molecule: Cc1coc2c1CC1OC1(C)CCC1OC1(C)C2 (stereo not given)
F

Test call, this molecule: COc1cc([C@@H]2Oc3c(OC)cc(CCCO)cc3[C@@H]2CO[C@@H]2O[C@H](CO)[C@@H](O)[C@H](O)[C@H]2O)ccc1O
F

Test call, this molecule: CC1(C)CCC(C)(C)c2cc([C@@H](O)C(=O)Nc3ccc(C(=O)O)cc3F)ccc21
F

Test call, this molecule: C/C=C/C1=CC2=C(CO1)C(=O)[C@](C)(O)[C@H](OC(=O)c1c(O)cc(OC)c(O)c1C)C2
F

Test call, this molecule: CC(=O)O[C@@H]1C[C@]2(C)[C@@]3(CCC4[C@@]5(C)CC[C@H](O[C@@H]6O[C@H](C(=O)O)[C@@H](O)[C@H](O[C@@H]7O[C@H](CO)[C@H](O)[C@H](O)[C@H]7O[C@@H]7O[C@@H](C)[C@H](O)[C@@H](O)[C@H]7O[C@@H]7OC[C@](O)(CO)[C@H]7O)[C@H]6O[C@@H]6O[C@H](CO)[C@H](O)[C@H](O)[C@H]6O)C(C)(C)C5CC[C@]42C)O[C@@H](O)[C@]12C3CC(C)(C)[C@@H](OC(=O)/C=C/c1ccc(O)c(O)c1)[C@@H]2OC(=O)/C=C/c1ccccc1 (stereo not given in full)
F

Test call, this molecule: COc1ccccc1[C@@H]1C2=C(CC(C)(C)CC2=O)Nc2n[nH]c(C(F)(F)F)c21
F

Test call, this molecule: CCNC(=O)CCC/C=C\C[C@@H]1[C@@H](/C=C/C(O)CCc2ccccc2)[C@@H](O)C[C@@H]1O (stereo not given in full)
F

Test call, this molecule: C=C1CC2C3(C)C(O)CC(=O)C(C)(C)C3C(OC(C)=O)C(OC(C)=O)C2(C)C2C(=O)OC(C)(C(=O)OC)C(=O)C12C (stereo not given)
F

Test call, this molecule: CCC(NC(=O)CC(NC(=O)C(CO)NC(=O)C(CC)NC(=O)c1ccc[nH]1)c1ccccc1)C(=O)O (stereo not given)
F

Test call, this molecule: CNC(=O)Nc1ccc(OC)c(NC(=O)NC(=O)c2cc(F)c(F)cc2Cl)c1
F

Test call, this molecule: C#C[C@]1(O)CC[C@H]2[C@@H]3CCC4=C/C(=N/O)CC[C@@H]4[C@H]3CC[C@@]21CC
F

Test call, this molecule: CC1(C)CCCC2(C)C(CO)C3CCC2C31 (stereo not given)
F

Test call, this molecule: COC(=O)[C@@H]1C2CC3c4[nH]c5ccccc5c4CCN3CC2CC[C@@H]1O (stereo not given in full)
F

Test call, this molecule: CCN(c1cc(C#CCN2CCOCC2)cc(C(=O)NCc2c(C)cc(C)[nH]c2=O)c1C)C1CCC(N(C)CCOC)CC1 (stereo not given)
F

Test call, this molecule: COc1ccc2cc(OCC3(C(=O)O)CN(C(=O)c4ccc(F)cc4)C3)ccc2c1
F

Test call, this molecule: C=C(C)[C@@H]1CC[C@](C)(O)[C@@H](OC(=O)c2ccccc2)C1
F

Test call, this molecule: CC1=CC2(O)/C=C/C(C)(O)CC(O)/C=C/C(=O)OC23C(=O)NC(CC(C)C)C3C1C (stereo not given)
F

Test call, this molecule: CC(=O)OCC(=O)O[C@@H]1[C@H]2[C@@H](OC(=O)c3ccccc3)[C@@H](C)C[C@]2(O)[C@H](OC(C)=O)C2(C)[C@H]3CC(C)(C)C(=O)[C@@H]3CC1(OC(C)=O)[C@@H]2OC(C)=O (stereo not given in full)
F

Test call, this molecule: COc1ccc([C@H]2Cc3cccc(O)c3C(=O)O2)cc1
F

Test call, this molecule: CC[C@H]1OC(=O)C[C@@H](O)[C@H](C)[C@@H](O[C@@H]2O[C@H](C)[C@@H](O)[C@H](N(C)C)[C@H]2O)[C@@H](CCN2C[C@H](C)C[C@H](C)C2)C[C@@H](C)C(=O)/C=C/C(C)=C/[C@@H]1CO[C@@H]1O[C@H](C)[C@@H](O)[C@@H](OC)[C@H]1OC
F

Test call, this molecule: CCC(C)C1NC(=O)C2CCCN2C(=O)C(C(C)C)NC(=O)c2ccccc2NC(=O)C(Cc2ccc(O)cc2)NC(=O)C(C)NC(=O)C(C(C)O)NC1=O (stereo not given) (cyclo([2Abz]VPITAY); configuration not given here)
F
